# target.or.test.system: P-gp (MDR1) (Homo sapiens, UniProt P08183)
# Sequence (P08183 whole entry): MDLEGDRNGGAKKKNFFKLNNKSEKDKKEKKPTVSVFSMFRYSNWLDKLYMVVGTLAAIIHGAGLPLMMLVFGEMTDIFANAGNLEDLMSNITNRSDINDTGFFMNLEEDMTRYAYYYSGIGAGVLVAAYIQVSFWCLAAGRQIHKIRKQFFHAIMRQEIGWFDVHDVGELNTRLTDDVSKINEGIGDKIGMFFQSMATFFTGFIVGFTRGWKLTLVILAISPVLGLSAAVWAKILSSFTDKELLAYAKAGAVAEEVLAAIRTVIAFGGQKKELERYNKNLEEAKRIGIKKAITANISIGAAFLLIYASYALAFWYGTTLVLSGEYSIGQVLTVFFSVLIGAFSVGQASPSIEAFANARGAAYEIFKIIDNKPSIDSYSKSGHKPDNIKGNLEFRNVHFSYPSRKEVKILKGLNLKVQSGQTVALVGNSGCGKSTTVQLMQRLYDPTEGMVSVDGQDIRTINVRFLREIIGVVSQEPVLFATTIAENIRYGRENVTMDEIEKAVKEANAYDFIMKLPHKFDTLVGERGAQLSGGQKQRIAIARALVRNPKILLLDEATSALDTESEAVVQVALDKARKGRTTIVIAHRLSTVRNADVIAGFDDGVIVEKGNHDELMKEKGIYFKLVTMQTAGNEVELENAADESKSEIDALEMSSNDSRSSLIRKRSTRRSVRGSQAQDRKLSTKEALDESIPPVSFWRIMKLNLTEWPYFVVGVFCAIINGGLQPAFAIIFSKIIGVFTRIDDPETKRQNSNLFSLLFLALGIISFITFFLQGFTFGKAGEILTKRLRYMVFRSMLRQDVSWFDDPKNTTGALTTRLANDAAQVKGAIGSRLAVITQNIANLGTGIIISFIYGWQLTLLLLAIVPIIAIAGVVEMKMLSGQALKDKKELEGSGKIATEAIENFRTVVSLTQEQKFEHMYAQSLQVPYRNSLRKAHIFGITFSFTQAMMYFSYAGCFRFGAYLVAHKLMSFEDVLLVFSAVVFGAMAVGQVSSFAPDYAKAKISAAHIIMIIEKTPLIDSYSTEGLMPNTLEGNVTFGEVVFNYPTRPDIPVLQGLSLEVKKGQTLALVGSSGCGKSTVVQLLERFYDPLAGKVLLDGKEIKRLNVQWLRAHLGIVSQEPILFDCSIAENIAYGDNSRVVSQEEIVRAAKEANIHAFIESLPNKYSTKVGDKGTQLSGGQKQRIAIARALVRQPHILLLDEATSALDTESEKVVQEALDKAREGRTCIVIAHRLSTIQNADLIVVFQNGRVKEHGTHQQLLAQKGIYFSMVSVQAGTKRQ
# assay.summary: in vitro
# recorded.conditions: MDCK-MDR1, pH 7.4, ER (Papp,B→A over Papp,A→B), HPU: high-porosity filter, unstirred, pH 7.4 ISO-pH, 12 μM (loperamide 10 μM)
recorded.endpoint: efflux ratio

What measured efflux ratio goes with CN(C)C(=O)C(CCN1CCC(O)(c2ccc(Cl)cc2)CC1)(c1ccccc1)c1ccccc1 [Loperamide, loperamide] ?
2.8

---

# target.or.test.system: P-gp (MDR1) (Homo sapiens, UniProt P08183)
# assay.summary: in vitro
# recorded.conditions: MDCK-MDR1, pH 7.4, Papp,A→B, LPS: low-porosity filter, stirred, pH 7.4 ISO-pH, 12 μM (loperamide 10 μM), recovery-corrected mean ± SD
recorded.endpoint: Papp A→B

What measured Papp A→B goes with CN(C)C(=O)C(CCN1CCC(O)(c2ccc(Cl)cc2)CC1)(c1ccccc1)c1ccccc1 [Loperamide, loperamide] ?
5.65 ×10⁻⁶ cm/s
